# protocol: Total clearance in rat at 1 mg/kg, iv
# Type: ADME, organism-based
# Parameters: dose 1 mg/kg, route intravenous
# conditionNotes: in vivo
measuredProperty: clearance
Put down the number, then write its unit next to it.

input: Please give the documented clearance of N#Cc1c(Oc2ccc(F)c(NC(=O)Cc3cccc(C(F)(F)F)c3)c2)ccc2nc(NC(=O)C3CC3)sc12
output: 6.67 mL/min/kg

---

# testTarget: Serine/threonine-protein kinase B-raf (Homo sapiens, UniProt P15056, V600E)
# Sequence (P15056 2-766 V600E limits assumed): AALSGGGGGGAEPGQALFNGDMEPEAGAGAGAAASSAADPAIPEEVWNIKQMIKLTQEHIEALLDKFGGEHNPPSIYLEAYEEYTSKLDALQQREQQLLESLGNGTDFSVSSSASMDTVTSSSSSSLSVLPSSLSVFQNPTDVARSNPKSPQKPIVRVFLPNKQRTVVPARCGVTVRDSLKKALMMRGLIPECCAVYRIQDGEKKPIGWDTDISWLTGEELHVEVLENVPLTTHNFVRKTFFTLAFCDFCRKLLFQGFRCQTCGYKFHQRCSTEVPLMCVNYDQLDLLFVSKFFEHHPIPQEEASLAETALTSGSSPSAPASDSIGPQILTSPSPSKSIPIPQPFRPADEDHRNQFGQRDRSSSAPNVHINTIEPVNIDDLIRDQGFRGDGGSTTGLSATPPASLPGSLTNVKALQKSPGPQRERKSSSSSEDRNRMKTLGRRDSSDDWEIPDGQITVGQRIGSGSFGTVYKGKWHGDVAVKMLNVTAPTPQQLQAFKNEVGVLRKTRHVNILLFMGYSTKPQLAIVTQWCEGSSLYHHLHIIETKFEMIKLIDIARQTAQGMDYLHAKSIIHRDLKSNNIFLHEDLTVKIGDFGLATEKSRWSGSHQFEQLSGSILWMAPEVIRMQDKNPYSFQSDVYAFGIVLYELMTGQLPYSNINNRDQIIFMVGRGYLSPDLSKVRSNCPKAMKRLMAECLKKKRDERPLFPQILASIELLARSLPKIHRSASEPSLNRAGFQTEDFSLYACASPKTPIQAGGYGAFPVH
# protocol: Inhibition of BRAF V600E mutant (unknown origin) compound preincubated for 1 hr in presence of 1000 uM ATP
measuredProperty: pIC50
Remember the convention: pIC50 equals -log10 of concentration in molar.

input: Please give the documented pIC50 of N#Cc1c(Oc2ccc(F)c(NC(=O)Cc3cccc(C(F)(F)F)c3)c2)ccc2nc(NC(=O)C3CC3)sc12
output: 8.48
